Source listed as patent US20230097866A1.

Molecular target: CYP3A4 (Homo sapiens)
Construct: incubated with human liver microsomes (mixed gender, pool of 50 donors, 0.1 mg/mL); from tissue; host or cells: human liver microsomes, pool of 50 donors
Assay: CYP450 inhibition in human liver microsomes, CYP3A4
Format: in vitro ADME
Conditions: both sexes, liver microsomes, pH 7.4, probe midazolam, 1 μM, Exp. 1, read-out: CYP3A4 (midazolam hydroxylase) % of control (Exp. 1)
outcome measure: activity at 1 µM (%)
Form entry: value (%) — number only.

Fill: activity at 1 µM (CYP3A4 (Homo sapiens)) for this compound COc1ccc2ncc(F)c(CC[C@@]3(O)CO[C@@H]4[C@@H](NCc5cc6c(cn5)OCCO6)CO[C@@H]43)c2n1
60.4

---

Target: CYP3A4 (Homo sapiens, UniProt P08684)
Construct: incubated with human liver microsomes (mixed gender, pool of 50 donors, 0.1 mg/mL); from tissue; host or cells: human liver microsomes, pool of 50 donors
Sequence (P08684 whole entry): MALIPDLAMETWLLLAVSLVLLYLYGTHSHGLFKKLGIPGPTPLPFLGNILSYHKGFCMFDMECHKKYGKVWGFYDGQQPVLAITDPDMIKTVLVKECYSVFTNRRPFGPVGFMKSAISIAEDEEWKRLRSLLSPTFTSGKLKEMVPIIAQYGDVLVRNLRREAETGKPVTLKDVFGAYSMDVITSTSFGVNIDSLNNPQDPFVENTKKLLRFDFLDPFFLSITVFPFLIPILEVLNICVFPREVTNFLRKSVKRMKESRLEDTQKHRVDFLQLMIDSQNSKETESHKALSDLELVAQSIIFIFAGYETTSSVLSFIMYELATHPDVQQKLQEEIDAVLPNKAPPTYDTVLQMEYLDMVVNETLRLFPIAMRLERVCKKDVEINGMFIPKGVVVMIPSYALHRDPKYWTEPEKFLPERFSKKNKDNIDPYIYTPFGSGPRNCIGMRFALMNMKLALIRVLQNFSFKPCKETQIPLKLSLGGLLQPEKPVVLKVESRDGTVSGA
Assay: CYP450 inhibition in human liver microsomes, CYP3A4
Format: in vitro ADME
Details: both sexes, liver microsomes, pH 7.4, probe midazolam, 0.1 μM, Exp. 2, read-out: CYP3A4 (midazolam hydroxylase) % of control (Exp. 2)
outcome measure: activity at 0.1 µM (%)
Form entry: value (%) — number only.

Output activity at 0.1 µM of COc1ccc2ncc(F)c(CC[C@@]3(O)CO[C@@H]4[C@@H](NCc5cc6c(cn5)OCCO6)CO[C@@H]43)c2n1
108

---

Molecular target: CYP3A4 (Homo sapiens, UniProt P08684)
Construct: incubated with human liver microsomes (mixed gender, pool of 50 donors, 0.1 mg/mL); from tissue; host or cells: human liver microsomes, pool of 50 donors
Assay: CYP450 inhibition in human liver microsomes, CYP3A4
Type: in vitro ADME
Conditions: both sexes, liver microsomes, pH 7.4, probe midazolam, 0.3 μM, Exp. 3, read-out: CYP3A4 (midazolam hydroxylase) % of control (Exp. 3)
outcome measure: activity at 0.3 µM
State the value, then name its unit.

Output activity at 0.3 µM of COc1ccc2ncc(F)c(CC[C@@]3(O)CO[C@@H]4[C@@H](NCc5cc6c(cn5)OCCO6)CO[C@@H]43)c2n1 [Compound 6]
99.2%

---

Test system: S. aureus ATCC 29213
Assay: MIC, CLSI broth microdilution, S. aureus ATCC 29213
Assay type: cell-based
Settings: Staphylococcus aureus, ATCC29213; CLSI broth microdilution, triplicate; read-out: MIC ATCC 29213
outcome measure: MIC

These recorded examples may help you get a feel for the data.
> print(dat)
                                   compound        test.result
1  COc1ccc2nccc(CC[C@@]3(O)CO[C@@H]4[C@@H](NCc5ccc(C)cc5)CO[C@@H]43)c2c1          > 8 µg/mL
2  COc1ccc2ncc(F)c(CC[C@@]3(O)CO[C@@H]4[C@@H](NCc5cc6c(cn5)OCCO6)CO[C@@H]43)c2n1       1 to 4 µg/mL
3  COc1ccc2nccc(CC[C@@]3(O)CO[C@@H]4[C@@H](NCc5ccc6c(c5)OCCO6)CO[C@@H]43)c2c1     16 to 32 µg/mL
4  COc1ccc2ncc(F)c(CC[C@@]3(O)CO[C@@H]4[C@@H](NCc5ccc(C)cc5)CO[C@@H]43)c2n1       1 to 2 µg/mL
5  COc1ccc2ncc(F)c(CC[C@@]3(O)CO[C@@H]4[C@@H](NCc5ccc(Cl)c(Cl)c5)CO[C@@H]43)c2n1  0.25 to 0.5 µg/mL

Output MIC of COc1ccc2nccc(CC[C@@]3(O)CO[C@@H]4[C@@H](NCc5ccccc5)CO[C@@H]43)c2c1
> 8 µg/mL

Output MIC of COc1ccc2ncc(F)c(CCC3OCC(NCc4ccc5c(c4)OCCO5)CO3)c2n1 (stereo not shown)
≤ 0.25 µg/mL

---

Target: CYP3A4 (Homo sapiens, UniProt P08684)
Construct: incubated with human liver microsomes (mixed gender, pool of 50 donors, 0.1 mg/mL); from tissue; host or cells: human liver microsomes, pool of 50 donors
Experiment: CYP450 inhibition in human liver microsomes, CYP3A4
Format: in vitro ADME
Details: both sexes, liver microsomes, pH 7.4, probe midazolam, 0.3 μM, Exp. 2, read-out: CYP3A4 (midazolam hydroxylase) % of control (Exp. 2)
Procedure: CYP450 inhibition assays was conducted using individual enzyme substrates and inhibitors instead of a cocktail to avoid interferences. CYP450 isoforms tested included the following: CYP1A2, CYP2B6, CYP2C8, CYP2C9, CYP2C19, CYP2D6, and CYP3A4. […] Samples were mixed and centrifuged, and the supernatants analyzed by LC-MS/MS to quantify percent inhibition relative to vehicle control.
outcome measure: activity at 0.3 µM

Output activity at 0.3 µM of COc1ccc2ncc(F)c(CC[C@@]3(O)CO[C@@H]4[C@@H](NCc5cc6c(cn5)OCCO6)CO[C@@H]43)c2n1
113%

---

Target: CYP3A4 (Homo sapiens)
Construct: incubated with human liver microsomes (mixed gender, pool of 50 donors, 0.1 mg/mL); from tissue; host or cells: human liver microsomes, pool of 50 donors
Experiment: CYP450 inhibition in human liver microsomes, CYP3A4
Format: in vitro ADME
Settings: both sexes, liver microsomes, pH 7.4, probe midazolam, 0.1 μM, Exp. 3, read-out: CYP3A4 (midazolam hydroxylase) % of control (Exp. 3)
outcome measure: activity at 0.1 µM
State the value, then name its unit.

Output activity at 0.1 µM of COc1ccc2ncc(F)c(CC[C@@]3(O)CO[C@@H]4[C@@H](NCc5cc6c(cn5)OCCO6)CO[C@@H]43)c2n1
97%

---

Target: CYP3A4 (Homo sapiens, UniProt P08684)
Construct: incubated with human liver microsomes (mixed gender, pool of 50 donors, 0.1 mg/mL); from tissue; host or cells: human liver microsomes, pool of 50 donors
Experiment: CYP450 inhibition in human liver microsomes, CYP3A4
Type: in vitro ADME
Settings: both sexes, liver microsomes, pH 7.4, probe midazolam, concentration-response assay in triplicate
Protocol: CYP450 inhibition assays was conducted using individual enzyme substrates and inhibitors instead of a cocktail to avoid interferences. CYP450 isoforms tested included the following: CYP1A2, CYP2B6, CYP2C8, CYP2C9, CYP2C19, CYP2D6, and CYP3A4. […] Samples were mixed and centrifuged, and the supernatants analyzed by LC-MS/MS to quantify percent inhibition relative to vehicle control.
outcome measure: IC50

Fill: IC50 (CYP3A4 (Homo sapiens, UniProt P08684)) for this compound COc1ccc2ncc(F)c(CC[C@@]3(O)CO[C@@H]4[C@@H](NCc5cc6c(cn5)OCCO6)CO[C@@H]43)c2n1 [Compound 6]
> 10 µM

---

Target: CYP3A4 (Homo sapiens, UniProt P08684)
Construct: incubated with human liver microsomes (mixed gender, pool of 50 donors, 0.1 mg/mL); from tissue; host or cells: human liver microsomes, pool of 50 donors
Test: CYP450 inhibition in human liver microsomes, CYP3A4
Assay type: in vitro ADME
Conditions: both sexes, human liver microsomes, pH 7.4, probe midazolam (midazolam hydroxylase activity), 10 μM, Exp. 3, read-out: CYP3A4 (midazolam hydroxylase) % of control (Exp. 3)
Protocol: CYP450 inhibition assays was conducted using individual enzyme substrates and inhibitors instead of a cocktail to avoid interferences. CYP450 isoforms tested included the following: CYP1A2, CYP2B6, CYP2C8, CYP2C9, CYP2C19, CYP2D6, and CYP3A4. […] Samples were mixed and centrifuged, and the supernatants analyzed by LC-MS/MS to quantify percent inhibition relative to vehicle control.
outcome measure: activity at 10 µM
State the value, then name its unit.

Output activity at 10 µM of COc1ccc2ncc(F)c(CC[C@@]3(O)CO[C@@H]4[C@@H](NCc5cc6c(cn5)OCCO6)CO[C@@H]43)c2n1 [Compound 6]
74.5%

---

Biological target: TopoIV from S. aureus (Staphylococcus aureus)
Sequence (P0C1S7 whole entry): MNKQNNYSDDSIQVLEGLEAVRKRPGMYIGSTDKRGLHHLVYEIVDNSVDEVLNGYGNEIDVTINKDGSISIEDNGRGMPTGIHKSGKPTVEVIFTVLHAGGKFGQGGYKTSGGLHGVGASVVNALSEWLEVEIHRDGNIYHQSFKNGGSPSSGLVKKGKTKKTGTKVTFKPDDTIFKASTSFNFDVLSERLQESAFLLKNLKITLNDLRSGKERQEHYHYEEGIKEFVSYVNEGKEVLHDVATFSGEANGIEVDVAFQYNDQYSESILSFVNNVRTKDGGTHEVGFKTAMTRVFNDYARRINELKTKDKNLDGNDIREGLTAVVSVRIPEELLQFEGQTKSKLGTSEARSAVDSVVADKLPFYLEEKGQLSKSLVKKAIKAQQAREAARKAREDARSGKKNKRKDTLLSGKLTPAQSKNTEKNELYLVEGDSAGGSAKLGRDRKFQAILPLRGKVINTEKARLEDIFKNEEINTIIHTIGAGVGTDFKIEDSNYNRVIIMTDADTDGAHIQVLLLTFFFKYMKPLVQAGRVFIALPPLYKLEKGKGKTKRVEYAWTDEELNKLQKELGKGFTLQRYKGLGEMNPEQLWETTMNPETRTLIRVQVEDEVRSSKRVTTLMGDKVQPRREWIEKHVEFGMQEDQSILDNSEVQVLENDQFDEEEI
Sequence (P0C1U9 whole entry): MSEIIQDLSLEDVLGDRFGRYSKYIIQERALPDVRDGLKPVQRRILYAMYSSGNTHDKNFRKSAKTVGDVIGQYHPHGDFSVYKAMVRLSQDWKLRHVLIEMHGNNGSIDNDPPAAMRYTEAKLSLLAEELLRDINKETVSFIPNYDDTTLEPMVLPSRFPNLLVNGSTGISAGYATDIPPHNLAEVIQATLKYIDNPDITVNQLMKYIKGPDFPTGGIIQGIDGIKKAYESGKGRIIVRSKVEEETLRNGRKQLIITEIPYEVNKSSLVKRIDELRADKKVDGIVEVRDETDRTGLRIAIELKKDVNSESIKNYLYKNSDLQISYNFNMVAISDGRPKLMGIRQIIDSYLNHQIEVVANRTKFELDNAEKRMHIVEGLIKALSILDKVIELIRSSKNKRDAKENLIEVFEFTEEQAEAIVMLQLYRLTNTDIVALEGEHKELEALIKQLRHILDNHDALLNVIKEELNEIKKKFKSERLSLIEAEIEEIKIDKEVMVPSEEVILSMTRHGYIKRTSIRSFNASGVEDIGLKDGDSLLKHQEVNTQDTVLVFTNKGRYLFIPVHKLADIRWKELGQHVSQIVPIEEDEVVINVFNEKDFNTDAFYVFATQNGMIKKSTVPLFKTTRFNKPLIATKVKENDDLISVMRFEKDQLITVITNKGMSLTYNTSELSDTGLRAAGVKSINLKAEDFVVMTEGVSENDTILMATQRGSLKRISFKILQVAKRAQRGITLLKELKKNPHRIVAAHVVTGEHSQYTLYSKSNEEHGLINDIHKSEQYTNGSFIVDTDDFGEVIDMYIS
Experiment: biochemical
Type: biochemical
outcome measure: pIC50
pIC50 here: minus log base 10 of the concentration, concentration in moles per litre.

Output pIC50 of COc1ccc2ncc(F)c(CC[C@@]3(O)CO[C@@H]4[C@@H](NCc5ccc6c(c5)OCCO6)CO[C@@H]43)c2n1
5.59

---

Target: CYP3A4 (Homo sapiens, UniProt P08684)
Construct: incubated with human liver microsomes (mixed gender, pool of 50 donors, 0.1 mg/mL); from tissue; host or cells: human liver microsomes, pool of 50 donors
Test: CYP450 inhibition in human liver microsomes, CYP3A4
Type: in vitro ADME
Settings: both sexes, liver microsomes, pH 7.4, probe midazolam, 0.3 μM, Exp. 1, read-out: CYP3A4 (midazolam hydroxylase) % of control (Exp. 1)
outcome measure: activity at 0.3 µM
State the value, then name its unit.

Output activity at 0.3 µM of COc1ccc2ncc(F)c(CC[C@@]3(O)CO[C@@H]4[C@@H](NCc5cc6c(cn5)OCCO6)CO[C@@H]43)c2n1
89.9%
